Cited source: patent US20150315188A1

- STUDY_TARGET: Human adrenergic α2B receptor (Homo sapiens, UniProt P18089)
- TEST_NAME: Radioligand binding, adrenergic α2B (Protocol Group A)
- Design: expressed in transfected cells; host or cells: CHO-K1
- DETAILS: 0.03 μM compound, [3H]Rauwolscine, 0.03 µM
Listing of recorded percent inhibition of specific binding, Adrenergic α2B by entry.
Write down the numeric answer in % and omit the unit.

The examples below pair each entry with its known result.
Cc1ccc(C(F)Cn2c3c(c4cccnc42)C2CCCN2CC3)cn1 (single isomer, unassigned) [10a] ... 4
c1cncc(CCn2c3c(c4ccccc42)C2CCCN2CC3)c1 (single isomer, unassigned) [2a] ... 102

Could you now look at the following compound, please?
QUERY: Look up and report measured percent inhibition of specific binding, Adrenergic α2B for this entry: Cc1ccc2c(c1)c1c(n2CC(OC(=O)N2CCCC2)c2ccncc2)CCN(C)C1 (single isomer, unassigned) [4a]
RESULT: 39

====

- STUDY_TARGET: Human adrenergic α1B receptor (Homo sapiens, UniProt P35368)
- Sequence (P35368 1-520): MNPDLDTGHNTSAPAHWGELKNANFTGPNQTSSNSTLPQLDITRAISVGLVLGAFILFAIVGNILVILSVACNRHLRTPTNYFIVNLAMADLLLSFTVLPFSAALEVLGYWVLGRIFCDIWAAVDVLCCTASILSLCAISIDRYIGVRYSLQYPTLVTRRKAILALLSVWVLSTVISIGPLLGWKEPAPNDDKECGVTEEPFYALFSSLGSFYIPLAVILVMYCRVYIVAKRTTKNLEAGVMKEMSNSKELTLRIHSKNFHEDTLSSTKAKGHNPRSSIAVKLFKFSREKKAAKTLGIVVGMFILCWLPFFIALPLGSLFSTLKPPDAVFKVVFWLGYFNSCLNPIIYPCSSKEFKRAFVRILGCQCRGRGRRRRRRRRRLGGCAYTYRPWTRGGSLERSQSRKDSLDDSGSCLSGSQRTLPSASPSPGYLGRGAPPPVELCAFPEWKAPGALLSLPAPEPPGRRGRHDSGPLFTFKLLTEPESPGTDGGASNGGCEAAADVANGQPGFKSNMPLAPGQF
- TEST_NAME: Radioligand binding, adrenergic α1B (Protocol Group B)
- Parameters: purchased Milipore (Millipore)
- DETAILS: 0.1 μM compound; Protocol Group B; 0.1 µM
ENDPOINT_LABEL: Percentage inhibition of ligand binding, Adrenergic α1B (0.1 μM) (%)
Write down the numeric answer in % and omit the unit.

The examples below pair each entry with its known result.
Cc1cc(F)c2c(c1)c1c(n2CC(C)(O)c2cccnc2)CCN2CCCC12 (single isomer, unassigned) [79c] ... 1
Cc1ccc2c(c1)c1c(n2CC(C)(O)c2cccnc2)CC2CCCN2C1 (centres unmarked) [41b] ... −11
Cc1ccc2c(c1)c1c(n2CC(C)(O)c2cccnc2)CCN(C)C1CO (single isomer, unassigned) [16a] ... 16

QUERY: Look up and report measured Percentage inhibition of ligand binding, Adrenergic α1B (0.1 μM) for this entry: CC(O)(Cn1c2c(c3cc(F)ccc31)C1CCCN1CC2)c1cccnc1 (centres unmarked) [57b]
RESULT: −10

QUERY: Look up and report measured Percentage inhibition of ligand binding, Adrenergic α1B (0.1 μM) for this entry: OC(Cn1c2c(c3cc(Cl)ccc31)C1CCCN1CC2)c1ccncc1 (single isomer, unassigned) [143a]
RESULT: 91

QUERY: Look up and report measured Percentage inhibition of ligand binding, Adrenergic α1B (0.1 μM) for this entry: Cc1cc(F)c2c(c1)c1c(n2CC(C)(O)c2ccncc2)CC2CCCN2C1 (single isomer, unassigned) [62c]
RESULT: 10

QUERY: Look up and report measured Percentage inhibition of ligand binding, Adrenergic α1B (0.1 μM) for this entry: Cc1cc(F)c2c(c1)c1c(n2CC(C)(O)c2ccncc2)CC2CCCN2C1 (single isomer, unassigned) [62a]
RESULT: 22

QUERY: Look up and report measured Percentage inhibition of ligand binding, Adrenergic α1B (0.1 μM) for this entry: Cc1ccc2c(c1)c1c(n2CC(OC2CCCC2)c2ccncc2)CCN(C)C1 (single isomer, unassigned) [35b]
RESULT: 5

QUERY: Look up and report measured Percentage inhibition of ligand binding, Adrenergic α1B (0.1 μM) for this entry: CN1CCc2c(c3cc(CCO)ccc3n2CC(O)c2ccncc2)C1 (single isomer, unassigned) [140b]
RESULT: −4

QUERY: Look up and report measured Percentage inhibition of ligand binding, Adrenergic α1B (0.1 μM) for this entry: Cc1ccc2c(c1)c1c(n2CC(C)(O)c2cccnc2)CC2CCC1N2C (single isomer, unassigned) [101b]
RESULT: −3

QUERY: Look up and report measured Percentage inhibition of ligand binding, Adrenergic α1B (0.1 μM) for this entry: CCOC(Cn1c2c(c3cc(C)ccc31)CN(C)CC2)c1ccncc1 (single isomer, unassigned) [43b]
RESULT: 14

QUERY: Look up and report measured Percentage inhibition of ligand binding, Adrenergic α1B (0.1 μM) for this entry: CC(O)(Cn1c2c(c3cc(Cl)cc(F)c31)C1CCCN1CC2)c1ccncc1 (single isomer, unassigned) [52b]
RESULT: 35

QUERY: Look up and report measured Percentage inhibition of ligand binding, Adrenergic α1B (0.1 μM) for this entry: Cc1ccc2c(c1)c1c(n2CC(C)(O)c2ccncc2)CC2CCCN2C1 (single isomer, unassigned) [37b]
RESULT: 40

QUERY: Look up and report measured Percentage inhibition of ligand binding, Adrenergic α1B (0.1 μM) for this entry: Cc1cc2c3c(n(CC(C)(O)c4ccncc4)c2cc1Cl)CCN1CCCC31 (single isomer, unassigned) [50d]
RESULT: −8

====

- STUDY_TARGET: Human adrenergic α2B receptor (Homo sapiens, UniProt P18089)
- TEST_NAME: Radioligand binding, adrenergic α2B (Protocol Group B)
- Design: purchased Milipore (Millipore)
- DETAILS: 0.1 μM compound; Protocol Group B; read-out: Percentage inhibition of ligand binding, Adrenergic α2B (0.1 μM)
Listing of recorded inhibition at 0.1 µM by entry.
Write down the numeric answer in % and omit the unit.

The examples below pair each entry with its known result.
Cc1ccc2c(c1)c1c(n2CC(OC(C)C)c2ccncc2)CCN(C)C1 (stereo not drawn) ... 91
Cc1cc(F)c2c(c1)c1c(n2CC(C)(O)c2cccnc2)CC2CCCN2C1 (single isomer, unassigned) [61c] ... 92
Cc1cc(F)c2c(c1)c1c(n2CC(C)(O)c2cccnc2)CCN2CCCC12 (single isomer, unassigned) [79b] ... 97

QUERY: Look up and report measured inhibition at 0.1 µM for this entry: Cc1ccc2c(c1)c1c(n2CC(C)(O)c2ccc(OCC3CC3)nc2)CCN(C)C1 (stereo not drawn)
RESULT: 74

QUERY: Look up and report measured inhibition at 0.1 µM for this entry: Cc1cc(F)c2c(c1)c1c(n2CC(C)(O)c2ccncc2)CCN2CCCC12 (single isomer, unassigned) [81c]
RESULT: 17

QUERY: Look up and report measured inhibition at 0.1 µM for this entry: CN1CCc2c(c3cc(C(F)(F)F)ccc3n2CC(OC2CCCC2)c2ccncc2)C1 (single isomer, unassigned) [60a]
RESULT: 72

QUERY: Look up and report measured inhibition at 0.1 µM for this entry: Cc1cc(C)c2c(c1)c1c(n2CC(C)(O)c2cccnc2)CCN2CCCC12 (single isomer, unassigned) [44a]
RESULT: 95

QUERY: Look up and report measured inhibition at 0.1 µM for this entry: Cc1ccc2c(c1)c1c(n2CC(O)c2ccncc2)CNC2CCCC12 (single isomer, unassigned) [34c]
RESULT: 90

====

- STUDY_TARGET: Human adrenergic α2B receptor (Homo sapiens)
- Sequence (P18089 1-450): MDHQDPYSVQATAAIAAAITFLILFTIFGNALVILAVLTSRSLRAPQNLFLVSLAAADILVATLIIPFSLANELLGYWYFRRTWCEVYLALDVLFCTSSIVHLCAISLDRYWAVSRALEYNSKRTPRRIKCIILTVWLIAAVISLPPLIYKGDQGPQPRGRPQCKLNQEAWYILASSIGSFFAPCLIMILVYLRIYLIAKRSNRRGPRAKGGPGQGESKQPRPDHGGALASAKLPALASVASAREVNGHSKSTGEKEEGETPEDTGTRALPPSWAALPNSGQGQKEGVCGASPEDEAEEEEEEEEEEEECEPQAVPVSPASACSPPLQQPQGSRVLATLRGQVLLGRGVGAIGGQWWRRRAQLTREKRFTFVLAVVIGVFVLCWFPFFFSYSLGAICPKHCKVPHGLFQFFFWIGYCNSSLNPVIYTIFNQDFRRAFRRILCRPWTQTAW
- TEST_NAME: Radioligand binding, adrenergic α2B (Protocol Group B)
- Set-up: purchased Milipore (Millipore)
- DETAILS: Protocol Group B; estimated Ki; read-out: Ki α2B
ENDPOINT_LABEL: pKi
In textbook form, pKi equals minus log to base ten of the concentration in mol/L.

The examples below pair each entry with its known result.
Cc1cc(F)c2c(c1)c1c(n2CC(C)(O)c2cccnc2)CCN2CCCC12 (single isomer, unassigned) [79b] ... 8.81
Cc1ccc2c(c1)c1c(n2CC(C)(O)c2ccncc2)CCN2CCCC12 (single isomer, unassigned) [13a] ... 8.73

QUERY: Look up and report measured pKi for this entry: Cc1cc(F)c2c(c1)c1c(n2CC(O)c2ccncc2)CCN2CCCC12 (single isomer, unassigned) [137b]
RESULT: 9.10

QUERY: Look up and report measured pKi for this entry: Cc1cc(F)c2c(c1)c1c(n2CC(C)(O)c2cccnc2)CC2CCCN2C1 (single isomer, unassigned) [61c]
RESULT: 8.27

QUERY: Look up and report measured pKi for this entry: CC(O)(Cn1c2c(c3cc(F)cc(Cl)c31)C1CCCN1CC2)c1cccnc1 (single isomer, unassigned) [89c]
RESULT: 8.12

QUERY: Look up and report measured pKi for this entry: CCCOC(Cn1c2c(c3cc(C)ccc31)CN(C)CC2)c1ccncc1 (single isomer, unassigned) [42b]
RESULT: 8.89
